target: recombinant human NaV1.8 stably transfected HEK cells (Homo sapiens, UniProt Q9Y5Y9); construct: expressed in transfected cells; host or cells: HEK cells, stably transfected; assay: Compound profiling on NaV1.8, human NaV1.8 cell line, SyncroPatch384PE automated patch clamp assay (Example 115, third set of compounds, Table 27); assay type: cell-based; settings: inactivated state block (P2 measurement), human NaV1.8 HEK cells, Table 27 (third set of compounds), read-out: P2 IC50
Sequence (Q9Y5Y9 whole entry): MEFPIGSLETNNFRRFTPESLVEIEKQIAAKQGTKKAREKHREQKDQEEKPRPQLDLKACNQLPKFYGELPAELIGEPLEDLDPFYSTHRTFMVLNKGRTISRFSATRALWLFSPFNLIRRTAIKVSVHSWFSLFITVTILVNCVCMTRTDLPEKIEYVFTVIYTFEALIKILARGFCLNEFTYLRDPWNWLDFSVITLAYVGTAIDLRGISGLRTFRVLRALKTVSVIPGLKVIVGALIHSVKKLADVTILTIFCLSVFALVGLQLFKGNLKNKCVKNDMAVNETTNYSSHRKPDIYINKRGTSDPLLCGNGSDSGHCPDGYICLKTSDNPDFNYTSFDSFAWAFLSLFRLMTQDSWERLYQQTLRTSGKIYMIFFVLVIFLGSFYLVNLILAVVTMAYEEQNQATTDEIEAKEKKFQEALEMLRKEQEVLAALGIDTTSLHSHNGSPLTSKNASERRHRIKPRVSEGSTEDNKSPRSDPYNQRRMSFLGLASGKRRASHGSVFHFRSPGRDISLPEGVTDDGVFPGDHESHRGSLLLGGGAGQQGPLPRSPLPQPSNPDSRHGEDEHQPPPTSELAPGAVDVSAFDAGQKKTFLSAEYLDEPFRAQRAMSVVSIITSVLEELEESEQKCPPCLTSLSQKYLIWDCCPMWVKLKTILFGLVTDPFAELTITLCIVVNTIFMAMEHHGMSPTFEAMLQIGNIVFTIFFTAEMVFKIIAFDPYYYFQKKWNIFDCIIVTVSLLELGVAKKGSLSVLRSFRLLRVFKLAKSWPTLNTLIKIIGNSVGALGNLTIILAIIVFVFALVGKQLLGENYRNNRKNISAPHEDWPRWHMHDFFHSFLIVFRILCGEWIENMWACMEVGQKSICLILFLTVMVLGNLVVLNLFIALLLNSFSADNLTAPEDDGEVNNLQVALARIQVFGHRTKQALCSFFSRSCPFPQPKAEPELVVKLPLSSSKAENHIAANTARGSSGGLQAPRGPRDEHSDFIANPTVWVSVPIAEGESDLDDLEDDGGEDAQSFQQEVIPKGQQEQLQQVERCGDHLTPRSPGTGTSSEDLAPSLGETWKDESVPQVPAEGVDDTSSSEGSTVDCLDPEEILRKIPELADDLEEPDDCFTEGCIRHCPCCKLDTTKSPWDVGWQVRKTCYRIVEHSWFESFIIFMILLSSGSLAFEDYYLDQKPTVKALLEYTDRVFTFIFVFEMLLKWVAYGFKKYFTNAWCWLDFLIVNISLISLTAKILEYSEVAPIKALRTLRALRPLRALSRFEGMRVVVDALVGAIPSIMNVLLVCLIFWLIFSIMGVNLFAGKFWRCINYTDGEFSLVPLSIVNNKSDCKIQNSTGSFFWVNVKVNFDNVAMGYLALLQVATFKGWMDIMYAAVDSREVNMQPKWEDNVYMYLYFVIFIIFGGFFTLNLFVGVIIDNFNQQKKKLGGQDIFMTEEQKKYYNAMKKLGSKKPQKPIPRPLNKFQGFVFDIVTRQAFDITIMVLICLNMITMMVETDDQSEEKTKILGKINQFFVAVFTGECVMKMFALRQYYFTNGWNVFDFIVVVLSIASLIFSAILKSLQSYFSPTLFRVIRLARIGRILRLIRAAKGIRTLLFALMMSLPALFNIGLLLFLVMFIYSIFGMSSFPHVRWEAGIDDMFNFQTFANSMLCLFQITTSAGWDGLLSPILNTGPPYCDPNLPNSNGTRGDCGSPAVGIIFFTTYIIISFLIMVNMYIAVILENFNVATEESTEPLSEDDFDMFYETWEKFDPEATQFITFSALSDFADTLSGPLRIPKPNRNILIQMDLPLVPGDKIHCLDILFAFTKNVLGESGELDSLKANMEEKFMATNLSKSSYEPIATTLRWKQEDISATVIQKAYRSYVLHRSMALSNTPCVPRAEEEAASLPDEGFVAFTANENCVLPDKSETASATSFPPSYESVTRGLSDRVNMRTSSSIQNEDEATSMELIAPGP
pIC50: −log10 of the molar value.
property label: pIC50

Sample records with pIC50:
- molecule: "COc1cc(F)ccc1Oc1nnc(C(F)(F)F)cc1C(=O)Nc1cccc(S(C)(=N)=O)c1 (stereo not shown)"
  property label: "pIC50"
  result: "≥ 6.70"
- molecule: "Cc1cc(F)ccc1Oc1nnc(C(F)(F)F)cc1C(=O)Nc1cccc([S@](C)(=N)=O)c1"
  property label: "pIC50"
  result: "6.30 to 6.70"
- molecule: "Cc1cc(F)ccc1Oc1nnc(C(F)(F)F)cc1C(=O)Nc1ccc(=O)[nH]c1"
  property label: "pIC50"
  result: "< 5.30"
- molecule: "COc1cc(F)ccc1Oc1nnc(C(F)(F)F)cc1C(=O)Nc1cncc(S(N)(=O)=O)c1"
  property label: "pIC50"
  result: "≥ 6.70"
- molecule: "COc1cc(F)ccc1Oc1nnc(C(F)(F)F)cc1C(=O)Nc1cccc(S2(=O)=NCCC2)c1 (stereo not shown)"
  property label: "pIC50"
  result: "6.30 to 6.70"

[Q] Returns the measured pIC50 for the input molecule. Input: Cc1cc(F)ccc1Oc1nnc(C(F)(F)F)cc1C(=O)Nc1ccc(S(C)(=N)=O)cc1 (stereo not shown)
[A] < 5.30

[Q] Then COc1c(Oc2ncc(C(F)(F)F)nc2C(=O)Nc2cccc(S(C)(=N)=O)c2)ccc(F)c1F (stereo not shown) ?
[A] ≥ 6.70
